Data origin: PubChem BioAssay

assay.overview: TLR3 IRF3 reporter activation blockers – cell-based, poly I:C stimulus, luciferase, 10K MLSCN set, primary screen (AID 602277)
study.conditions: HEK293-TLR3 RL24 IRF3 luciferase reporter, at 10 µM
Activity calls are given as the source filed them.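 The calls were made as follows: active = inhibition of the reporter signal at or above 50%; inactive = inhibition below 50%.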
Write down the outcome that applies. Available outcomes: active, inactive

See these solved cases before continuing.
{"compound": "CNc1nnc(-c2cccc(N(C)C)c2)s1", "cat": "inactive"}
{"compound": "COc1ccc(N2CCN(CCCNC(=O)C3(S(=O)(=O)c4ccc(Cl)cc4)CC3)CC2)cc1", "cat": "inactive"}
{"compound": "CCOC(=O)CSc1nnc(-c2ccccc2OC)o1", "cat": "active"}
{"compound": "COc1ccc(N(C)C(=O)CCS(=O)(=O)c2cccc3nonc23)c(OC)c1", "cat": "inactive"}
{"compound": "Cc1nc(NC(=O)c2csc3ccccc23)sc1C", "cat": "inactive"}

Req: Hi, do you know how `C/C(N)=C(/C#N)C(=O)CSc1nnc(Nc2cccc(C)c2)s1` came out in this test?
Resp: inactive

Req: Hi, do you know how `CC(C)c1nnc(NC(=O)CCC(=O)NCc2ccc3c(c2)OCO3)s1` came out in this test?
Resp: inactive

Req: Hi, do you know how `O=C(COC(=O)CCC1CCCC1)Nc1ccc(Cl)cn1` came out in this test?
Resp: inactive

Req: Hi, do you know how COc1cccc2cc(C(=O)C3=C(O)C(=O)N(CCCN4CCOCC4)C3c3ccncc3)oc12 (stereo unspecified) came out in this test?
Resp: inactive

Req: Hi, do you know how `CCCCOc1ccc(C(=O)N2CCC(C)CC2)cc1` came out in this test?
Resp: inactive

Req: Hi, do you know how CCOC(=O)CN1CC23C=CC(O2)C(C(=O)Nc2ccc(C(C)=O)cc2)C3C1=O (stereo unspecified) came out in this test?
Resp: inactive

* * *

assay.overview: inhibitors of TNFa-induced NFkB p65 translocation, primary screen, imaging, HUVEC, MLSMR starter and 10KST1 sets (AID 438);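 also: compound added about 3h40 before a 20 min TNFalpha stimulation; signal is the nuclear over cytoplasmic p65 intensity ratio per well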
study.conditions: HUVEC TNFa-induced p65 nuclear translocation; at 2 µM, hits give high values, 0% TNFa-plus-vehicle, 100% no-TNFa wells
property: inhibition (%)
Form entry: value (%) — number only.

{"compound": "CC(C)n1nc(C(=O)Nc2nc3ccc(S(C)(=O)=O)cc3s2)c2ccccc2c1=O", "result.units": "%", "value.observed": -6.8}
{"compound": "CC(C)CC(c1nnnn1CC1CCCO1)N1CCN(Cc2ccc3c(c2)OCO3)CC1 (stereo unspecified)", "result.units": "%", "value.observed": 1}
{"compound": "Cc1ccc(C(C(=O)NC2CCCCC2)N2CCOCC2)cc1 (stereo unspecified)", "result.units": "%", "value.observed": -5.2}
{"compound": "COC(=O)C1=C(C)Nc2nnnn2C1c1cccs1 (stereo unspecified)", "result.units": "%", "value.observed": -8.8}
{"compound": "Cc1ccc2c(Cl)cc(Cl)c(OCc3c(C)noc3C)c2n1", "result.units": "%", "value.observed": -1.2}
{"compound": "COc1cccc(N2CCN(Cc3nc(N)nc(Nc4ccccc4)n3)CC2)c1", "result.units": "%", "value.observed": -12.5}
{"compound": "CCOC(=O)C1(C)NC(c2ccc(OC)c(OC)c2)C2C(=O)N(CC)C(=O)C21 (stereo unspecified)", "result.units": "%", "value.observed": -8.4}
{"compound": "O=C(CSc1ncnc2c1cnn2-c1ccccc1)Nc1ccccc1", "result.units": "%", "value.observed": 2.4}
{"compound": "C=CCSc1n[nH]c(-c2ccc(OC)cc2)n1", "result.units": "%", "value.observed": 17.3}
{"compound": "Fc1ccc(NCc2nnc(SCc3nnc(-c4ccccc4)o3)n2CC2CCCO2)cc1 (stereo unspecified)", "result.units": "%", "value.observed": -9.7}

# input for lookup
Req: Recorded inhibition for `c1ccc(Cn2nnc3c(N4CCCCCC4)ncnc32)cc1` , please?
Resp: -4.2
